These entries and their values trace back to ChEMBL document CHEMBL1255505.

- MEASUREMENT NOTES: Inhibition of MAOA by spectrofluorimetry
Listed molecules paired with reported pIC50
On this scale, pIC50 is minus log10 of a concentration expressed in M (mol/L).

See these solved cases before continuing.
INSERT INTO assay_data (given_smiles, numeric_result) VALUES
  ('COc1cc(/C(C)=N/Nc2nc3ccccc3nc2Cc2ccccc2)cc(OC)c1OC', 7.54),
  ('Clc1ccccc1-c1nnc2c(Cc3ccccc3)nc3ccccc3n12', 8.21),
  ('C/C(=N\Nc1nc2ccccc2nc1Cc1ccccc1)c1ccccc1', 7.10),
  ('c1ccc(Cc2nc3ccccc3n3c(-c4ccccc4)nnc23)cc1', 7.09);

Per the records, this molecule ( "CN(C)c1ccc(-c2nnc3c(C(=O)c4ccccc4)nc4ccccc4n23)cc1" ) has pIC50 equal to 8.57

Per the records, this molecule ( "c1ccc(Cc2nc3ccccc3n3cnnc23)cc1" ) has pIC50 equal to 7.06

Per the records, this molecule ( "C/C(=N\Nc1nc2ccccc2nc1Cc1ccccc1)c1ccc(O)cc1" ) has pIC50 equal to 8.55

Per the records, this molecule ( "O=C(c1ccccc1)c1nc2ccccc2n2c(-c3ccccc3)nnc12" ) has pIC50 equal to 8.57

Per the records, this molecule ( "C(=N\Nc1nc2ccccc2nc1Cc1ccccc1)/c1ccccc1" ) has pIC50 equal to 7.09

Per the records, this molecule ( "CN(C)c1ccc(/C=N/Nc2nc3ccccc3nc2Cc2ccccc2)cc1" ) has pIC50 equal to 7.08

Per the records, this molecule ( "COc1ccc(/C(C)=N/Nc2nc3ccccc3nc2Cc2ccccc2)cc1" ) has pIC50 equal to 7.05

====

- MEASUREMENT NOTES: Selectivity index ratio of IC50 for MAOB to IC50 for MAOA
Listed compounds paired with reported Ratio IC50
The answer should be a number; do not append a unit.

INSERT INTO measurements (given_smiles, assay_readout, numeric_result) VALUES
  ('O=C(c1ccccc1)c1nc2ccccc2n2c(-c3ccc([N+](=O)[O-])cc3)nnc12', 'Ratio IC50', 10400);

Per the records, this compound ( "COc1ccc(/C=N/Nc2nc3ccccc3nc2Cc2ccccc2)cc1OC" ) has Ratio IC50 equal to 8210

Per the records, this compound ( "Oc1ccc(/C=N/Nc2nc3ccccc3nc2Cc2ccccc2)cc1" ) has Ratio IC50 equal to 2.32e+06

====

Listed molecules paired with reported pIC50
- SYSTEM: Amine oxidase [flavin-containing] B (Bos taurus) (UniProt P56560)
- Sequence (P56560 whole entry, looked up): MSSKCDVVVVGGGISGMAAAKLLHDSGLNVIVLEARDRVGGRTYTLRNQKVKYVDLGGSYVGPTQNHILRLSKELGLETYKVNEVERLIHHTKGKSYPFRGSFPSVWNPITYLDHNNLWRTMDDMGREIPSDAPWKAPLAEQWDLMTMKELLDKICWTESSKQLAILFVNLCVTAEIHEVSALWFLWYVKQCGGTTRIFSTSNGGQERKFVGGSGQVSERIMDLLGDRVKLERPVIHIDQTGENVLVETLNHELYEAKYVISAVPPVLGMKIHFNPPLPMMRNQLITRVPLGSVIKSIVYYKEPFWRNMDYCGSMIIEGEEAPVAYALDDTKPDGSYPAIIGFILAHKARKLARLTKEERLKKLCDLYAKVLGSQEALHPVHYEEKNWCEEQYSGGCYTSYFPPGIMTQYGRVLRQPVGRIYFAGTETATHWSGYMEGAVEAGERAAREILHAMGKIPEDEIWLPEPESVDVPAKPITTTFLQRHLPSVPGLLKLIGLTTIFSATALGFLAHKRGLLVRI
On this scale, pIC50 is minus log10 of a concentration expressed in M (mol/L).

See these solved cases before continuing.
INSERT INTO assay_data (given_smiles, system, numeric_result) VALUES
  ('Cc1ccsc1/C=N/Nc1nc2ccccc2nc1Cc1ccccc1', 'Amine oxidase [flavin-containing] B (Bos taurus) (UniProt P56560)', 3.07),
  ('C/C(=N\Nc1nc2ccccc2nc1Cc1ccccc1)c1ccccc1', 'Amine oxidase [flavin-containing] B (Bos taurus) (UniProt P56560)', 3.01),
  ('C/C(=N\Nc1nc2ccccc2nc1Cc1ccccc1)c1ccc(N)cc1', 'Amine oxidase [flavin-containing] B (Bos taurus) (UniProt P56560)', 3.07);

Per the records, this molecule ( "O=C(c1ccccc1)c1nc2ccccc2n2c(-c3ccccc3)nnc12" ) has pIC50 equal to 3.62

Per the records, this molecule ( "C(=N\Nc1nc2ccccc2nc1Cc1ccccc1)/c1ccc2c(c1)OCO2" ) has pIC50 equal to 4.06

Per the records, this molecule ( "C=NNc1nc2ccccc2nc1Cc1ccccc1" ) has pIC50 equal to 3.02

Per the records, this molecule ( "COc1cc(/C(C)=N/Nc2nc3ccccc3nc2Cc2ccccc2)cc(OC)c1OC" ) has pIC50 equal to 3.59

Per the records, this molecule ( "C/C(=N\Nc1nc2ccccc2nc1Cc1ccccc1)c1cccs1" ) has pIC50 equal to 3.07
